Test Context: bacteroides thetaiotaomicron, 12 h, 2 µM
Description: The drug is tested on Bacteroides thetaiotaomicron strain: 3731 for biotransformation. The drug concentrations were measured before and after a 12-h incubation by liquid-chromatography-coupled mass spectrometry (LC–MS)

Compound	Bacterial Biotransformation
OCCN(CCO)c1nc(N2CCCCC2)c2nc(N(CCO)CCO)nc(N3CCCCC3)c2n1 [DIPYRIDAMOLE]	Compound NOT metabolized
CN1CCN(C2=Nc3ccccc3Oc3ccc(Cl)cc32)CC1.O=C(O)CCC(=O)O [LOXAPINE SUCCINATE]	Compound NOT metabolized

* * *

Assay Protocol: The drug is tested on Salmonella typhimurium strain: LT2 for biotransformation. The drug concentrations were measured before and after a 12-h incubation by liquid-chromatography-coupled mass spectrometry (LC–MS)
Test Context: salmonella enterica subsp. enterica, 2 µM
Measured Parameter: Bacterial Biotransformation

Below: 5 compounds and their reported Bacterial Biotransformation.
> print(dat)
                                   compound                data.value
1  CC(C)(C)NC[C@H](O)COc1ccccc1C1CCCC1.CC(C)(C)NC[C@H](O)COc1ccccc1C1CCCC1.O=S(=O)(O)O [PENBUTOLOL SULFATE]  Compound NOT metabolized
2  O=P1(N(CCCl)CCCl)NCCCO1 (centres undefined) [CYCLOPHOSPHAMIDE ANHYDROUS]  Compound NOT metabolized
3  O=C(O)COCCN1CCN(C(c2ccccc2)c2ccc(Cl)cc2)CC1 (centres undefined)      Compound metabolized
4  O=c1[nH]c2ccccc2n1C1CCN(CCCC(c2ccc(F)cc2)c2ccc(F)cc2)CC1 [PIMOZIDE]  Compound NOT metabolized
5  C=CCc1ccccc1OCC(O)CNC(C)C (centres undefined)  Compound NOT metabolized

Next compound, please.
Quickly give me recorded Bacterial Biotransformation for `CC(=O)Oc1ccc(C(c2ccc(OC(C)=O)cc2)c2ccccn2)cc1`
Compound metabolized

* * *

Assay Protocol: The drug is tested on Bacteroides pectinophilus strain: ATCC43243 for biotransformation. The drug concentrations were measured before and after a 12-h incubation by liquid-chromatography-coupled mass spectrometry (LC–MS)
Test Context: 2 µM
Measured Parameter: Bacterial Biotransformation

> print(dat)
                                   compound           measured.parameter                data.value
1  CC(C)NCC(O)c1ccc(NS(C)(=O)=O)cc1 (stereo not drawn)  Bacterial Biotransformation  Compound NOT metabolized
2                 Nc1nc2ccc(OC(F)(F)F)cc2s1  Bacterial Biotransformation  Compound NOT metabolized
3  CN(C)CCc1c[nH]c2ccc(Cn3cncn3)cc12.O=C(O)c1ccccc1 [RIZATRIPTAN BENZOATE]  Bacterial Biotransformation  Compound NOT metabolized
4  COc1ccccc1OCC(O)CN1CCN(CC(=O)Nc2c(C)cccc2C)CC1 (stereo not drawn)  Bacterial Biotransformation  Compound NOT metabolized
5       CCS(=O)(=O)CCn1c([N+](=O)[O-])cnc1C  Bacterial Biotransformation  Compound NOT metabolized

Let me know recorded Bacterial Biotransformation for `Cc1cn([C@H]2C[C@H](N=[N+]=[N-])[C@@H](CO)O2)c(=O)[nH]c1=O` , thanks.
Compound NOT metabolized

Answer with reported Bacterial Biotransformation of CS(=O)(=O)O.O.O.O.O=C1Cc2cc(CCN3CCN(c4nsc5ccccc45)CC3)c(Cl)cc2N1 [ZIPRASIDONE MESYLATE]
Compound NOT metabolized

Provide only the value of recorded Bacterial Biotransformation for Cc1ccccc1C(OCCN(C)C)c1ccccc1.O=C(O)CC(O)(CC(=O)O)C(=O)O (stereo not drawn) [ORPHENADRINE CITRATE]
Compound NOT metabolized
